# credit: patent US12411143B2

test system: ECFC; test: Soluble CD146 secretion in ECFC (ELISA); format: cell-based, human; details: 24 h TNF 20 ng/ml
Listed here: items and their measured reduction of sCD146 secretion by siRNA.

Solved entries (count: 2):
shCD146 siRNA: siRNA targeting the short isoform of CD146; sens 5′CAGGAGAUGGAGAGAAAUACAUCGA (antisense UCGAUGUAUUUCUCUCCAUCUCCUG; chemistry not given here)
~25%
ADAM10 siRNA: siRNA targeting ADAM10; sens 5′GAAUGGUAGAACAAGGUGAtt (sense GAAUGGUAGAACAAGGUGATT; antisense UCACCUUGUUCUACCAUUCCA; chemistry not given here)
60%

Read the next record carefully.
**Q:** Given the entry Tace siRNA: siRNA targeting Tace; sens 5′CAGGAUUUAAAGGUUAUGGAA (antisense UUCCAUAAACCUUUAAAUCCUG; listed as RNA, chemistry not given here) , report its measured reduction of sCD146 secretion by siRNA.
**A:** 25%
